Give half-life for every item shown.
Experiment: Terminal half life value in sprague dawley rat was determined at a dosage of 3 mg/kg
Assay type: ADME, organism-based
Set-up: dose 3 mg/kg
Conditions: in vivo

| MOLECULE | ASSAY READOUT | RESULT |
| --- | --- | --- |
| CC(C)Oc1cccc(C2CC2c2ccc3cc(C(=N)N)ccc3c2)c1 (stereo unspecified) | half-life | 5.91 h |
| N=C(N)c1ccc2cc(CCc3ccccc3)cc(Br)c2c1 | half-life | 3.3 h |
| N=C(N)c1ccc2cc(C3CC3c3ccccc3)cc(Br)c2c1 (stereo unspecified) | half-life | 4.71 h |
| N=C(N)c1ccc2cc(C(=O)Nc3ccccc3)cc(Nc3ncccn3)c2c1 | half-life | 0.6 h |
| N=C(N)c1ccc2cc(C(=O)Nc3ccccc3)ccc2c1 | half-life | 2.1 h |

Go through the list and state half-life for each entry.
1. N=C(N)c1ccc2cc(C(=O)Nc3ccccc3)cc(-c3ccoc3)c2c1
2. CC(C)C1c2cc(C3CC3c3ccc4cc(C(=N)N)ccc4c3)ccc2CCN1C (stereo unspecified)
3. N=C(N)c1ccc2cc(CCc3ccccc3)cc(Nc3ncccn3)c2c1
4. N=C(N)c1ccc2cc(/C=C/c3ccccc3)cc(-c3ccoc3)c2c1
5. CC1c2cc(C3CC3c3ccc4cc(C(=N)N)ccc4c3)ccc2CCN1C (stereo unspecified)
6. N=C(N)c1ccc2cc(C3CC3c3ccccc3)cc(Nc3ncccn3)c2c1 (stereo unspecified)

["3 h", "0.55 h", "2 h", "0.62 h", "0.28 h", "0.33 h"]

* * *

Experiment: Bioavailability in rat (Sprague-Dawley) (dose 10 mg/kg)
Format: ADME, organism-based
Settings: in vivo
Give bioavailability for every item shown.
One number for each entry, in %.

These solved cases illustrate the format of a correct answer.
| COMPOUND | UNIT OF MEASURE | READOUT NUMBER |
| --- | --- | --- |
| N=C(N)c1ccc2cc(CCc3ccccc3)cc(Nc3ncccn3)c2c1 | % | 0 |
| N=C(N)c1ccc2cc(C3CC3c3ccccc3)ccc2c1 (stereo not given) | % | 30 |
| CN1CCc2ccc(C3CC3c3ccc4cc(C(=N)N)ccc4c3)cc2C1C1CCCCC1 (stereo not given) | % | 27 |
| CC(C)C1=NCCc2cc(C3CC3c3ccc4cc(C(=N)N)ccc4c3)ccc21 (stereo not given) | % | 0 |
| N=C(N)c1ccc2cc(CCc3ccccc3)ccc2c1 | % | 60 |

Go through the list and state bioavailability for each entry.
1. CC(C)C1c2cc(C3CC3c3ccc4cc(C(=N)N)ccc4c3)ccc2CCN1C (stereo not given)
2. N=C(N)c1ccc2cc(C3CC3c3ccccc3)cc(Nc3ncccn3)c2c1 (stereo not given)
3. N=C(N)c1ccc2cc(/C=C/c3ccccc3)cc(-c3ccoc3)c2c1
4. N=C(N)c1ccc2cc(C(=O)Nc3ccccc3)cc(Nc3ncccn3)c2c1
5. CC(C)Oc1cccc(C2CC2c2ccc3cc(C(=N)N)ccc3c2)c1 (stereo not given)
6. N=C(N)c1ccc2cc(C3CC3c3ccccc3)cc(-c3ccoc3)c2c1 (stereo not given)

[55, 0, 0, 0, 23, 10]

* * *

Assay: in vivo
Details: Sprague-Dawley, rat, iv, 10 mg/kg
Description: Clearance value in sprague dawley rat was determined at a intravenous dosage of 10 mg/kg
ASSAY READOUT: clearance (mL/min/kg)
One number for each entry, in mL/min/kg.

Give clearance for CC(C)C1=NCCc2cc(C3CC3c3ccc4cc(C(=N)N)ccc4c3)ccc21 (stereo unspecified)
273
